- assay.system: T1, human MSLN-FL-his protein (human, UniProt Q13421 296-580)
- T1 construct: Made in HEK293E cells, purified on nickel column; it is put last here; also called human MSLN full-length protein; hMSLN-FL-his; not shown: His tag
- T1 sequence (Q13421 other isoform, or with tags, fused parts or gaps): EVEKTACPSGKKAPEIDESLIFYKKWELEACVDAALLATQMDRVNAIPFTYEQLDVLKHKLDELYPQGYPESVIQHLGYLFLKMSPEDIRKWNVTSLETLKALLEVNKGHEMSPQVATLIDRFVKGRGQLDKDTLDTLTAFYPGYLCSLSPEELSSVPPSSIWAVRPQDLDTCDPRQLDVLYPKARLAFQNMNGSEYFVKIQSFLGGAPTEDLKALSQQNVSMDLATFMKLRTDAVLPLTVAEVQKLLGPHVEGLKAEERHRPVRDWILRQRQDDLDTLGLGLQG
- assay.comment: ELISA on coated antigen, antibody 0.001 nM
# reported OD450; entries follow
Report as: number unit

- binder: "S009-F8-7.5 (antibody, human IgG1, kappa, V domains shown, Human-murine chimeric antibody, human IgG1 heavy and kappa light constant regions) VH: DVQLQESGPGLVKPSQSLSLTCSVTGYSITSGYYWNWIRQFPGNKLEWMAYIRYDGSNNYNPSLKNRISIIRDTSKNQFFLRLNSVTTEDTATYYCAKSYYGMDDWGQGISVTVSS VL: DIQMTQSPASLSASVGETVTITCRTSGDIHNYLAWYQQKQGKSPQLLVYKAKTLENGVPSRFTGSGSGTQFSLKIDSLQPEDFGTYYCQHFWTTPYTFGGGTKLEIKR"
  assay.metric: "OD450"
  observed: "0.12 OD"

// query # OD450 lookup, item S009-F8-4.5 (antibody, human IgG1, kappa, V domains shown, Human-murine chimeric antibody, human IgG1 heavy and kappa light constant regions) VH: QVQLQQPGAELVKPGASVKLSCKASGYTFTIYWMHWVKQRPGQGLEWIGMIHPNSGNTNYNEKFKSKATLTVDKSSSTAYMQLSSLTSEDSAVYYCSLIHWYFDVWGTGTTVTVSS VL: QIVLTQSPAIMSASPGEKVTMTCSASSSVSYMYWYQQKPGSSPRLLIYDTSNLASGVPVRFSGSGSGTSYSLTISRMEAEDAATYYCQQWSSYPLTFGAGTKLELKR
// result 0.1 OD
